# abundance fitness per entry
B1: Histone H1t, residues 44 to 112; numbered along this chain, P22492 (parent)
chain: VSKLITEALSVSQERVGMSLVALKKALAAAGYDVEKNNSRIKLSLKSLVNKGILVQTRGTGASGSFKLS

Variants of: B1
Test: abundance fitness (aPCA) (normalised: wild type 0, dead -1); higher = more abundant; growth selection in yeast, the domain comes from the species named
Details: Homo sapiens
Response field accepts a number only; no unit should be typed.

Please review the following examples before continuing.
sequence-content: VSKLITEALSVSQERVGMSLVALKSALAAAGYDVEKNNSRIKLSLKSLVNKGILVQTRGTGASGSFKLS [K25S]
abundance fitness: -0.23

sequence-content: VSKLITEALSVSQERVGMSLVALKKALAAAGYDVEKNNSRIKLSLLSLVNKGILVQTRGTGASGSFKLS [K46L]
abundance fitness: -0.178

sequence-content: VSKLITEALSVSQERVGMSLVAVKKALAAAGYDVEKNNSRIKLSLKSLVNKGILVQTRGTGASGSFKLS [L23V]
abundance fitness: -0.076

sequence-content: VSKLITEALSVSQERVGMSLVALKKALAAAGYDVEKNNSRIKLRLKSLVNKGILVQTRGTGASGSFKLS [S44R]
abundance fitness: -0.173

sequence-content: VSKLITEALSVSQERVGMSLVALKKALAAAGYDVEKNNSKIKLSLKSLVNKGILVQTRGTGASGSFKLS [R40K]
abundance fitness: 0.128

Form field: reported abundance fitness of VSKLITEALSVSQERVGMSLVALKKAIAAAGYDVEKNNSRIKLSLKSLVNKGILVQTRGTGASGSFKLS [L27I]
-0.116

Form field: reported abundance fitness of VSKLITEALSVSQERVGMSLVALKKALAAAGYDVEKNNSRIKLSLKSLVNKGILVQTRGTGASGGFKLS [S65G]
-0.003

Form field: reported abundance fitness of VSKLITEALSVSQERVGMSLVALKKALAAAGYDVEKNNSGIKLSLKSLVNKGILVQTRGTGASGSFKLS [R40G]
-0.372

Form field: reported abundance fitness of VSKLITEALSVSQERVGMSLVALKKALAAAGYDVEKNNSRIKHSLKSLVNKGILVQTRGTGASGSFKLS [L43H]
0.015

Form field: reported abundance fitness of VSKLITEALSVSQERVGMSLVALKKALAAAGYDVEKNNSRIKLSLKSLVNKNILVQTRGTGASGSFKLS [G52N]
-0.201
